Recorded measurements of IC50, one per entry
- tested target: benzodiazepine receptor
- assay info: benzodiazepine receptor binding assay (NovaScreen), [3H]Flunitrazipam radioligand
- Design: species or system bovine
- test conditions: crude benzodiazepines without further purification; bovine cortical membranes; [3H]Flunitrazipam; calculated from three concentrations (average of two determinations)

// known answers, use as guide
| compound | reported measurement |
| --- | --- |
| CC1N=C(c2cccs2)c2ccccc2NC1=O (centres unmarked) | 5900 nM |
| O=C1CN=C(c2ccccc2)c2ccccc2N1 | 515 nM |
| COc1ccc(C2=NCC(=O)Nc3ccccc32)cc1 | 28300 nM |
| O=C1Nc2ccc([N+](=O)[O-])cc2C(c2ccccc2)=NC1Cc1c[nH]c2ccccc12 (centres unmarked) | 12700 nM |
| O=C1CN=C(c2ccccc2)c2cc(Cl)ccc2N1 | 32 nM |

Return value of IC50 for input CC1N=C(c2ccccc2)c2ccccc2NC1=O (centres unmarked) , no commentary. 5800 nM

Give IC50 for the following compound: O=C1CN=C(c2cccs2)c2ccccc2N1 1120 nM

Report measured IC50; entry is O=C1CN=C(c2ccccc2)c2cc([N+](=O)[O-])ccc2N1 16 nM

Retrieve IC50 measured for Cc1ccc2c(c1)N(C(C)C)C(=O)CN=C2c1ccccc1 and print it. 18600 nM

Give recorded IC50. O=C1CN=C(C2CCCCC2)c2ccccc2N1 25700 nM

Given CC1N=C(c2ccccc2)c2cc([N+](=O)[O-])ccc2N(C)C1=O (centres unmarked) , respond with its IC50. 1000 nM

// Input: CC1N=C(c2ccccc2)c2cc([N+](=O)[O-])ccc2NC1=O (centres unmarked) . Output its IC50 only. 482 nM

For the compound CN1C(=O)CN=C(c2ccccc2)c2cc([N+](=O)[O-])ccc21 , give its reported IC50. 64 nM

Please report the measured IC50 for CC1N=C(c2ccccc2)c2cc(Cl)ccc2NC1=O (centres unmarked) 89 nM
